test system: Rattus norvegicus; experiment: Total volume of urine excreted during 4 hr after oral administration of 5 mg/kg of the test agent (protocol B) on 5 male and female rats; assay type: functional
measurementLabel: Urine (mL)
Answers are plain numbers, in mL.

[
  {
    "compound": "CC1c2ccccc2CN1NC(=O)c1ccc(Cl)c(S(N)(=O)=O)c1 (centres undefined) [ZIDAPAMIDE]",
    "observed": 127
  },
  {
    "compound": "CC1Cc2ccccc2N1NC(=O)c1ccc(Cl)c(S(N)(=O)=O)c1 (centres undefined) [INDAPAMIDE]",
    "observed": 130.6
  },
  {
    "compound": "NS(=O)(=O)c1cc(C(=O)NN2Cc3ccccc3C2CO)ccc1Cl (centres undefined)",
    "observed": 106
  }
]

Now for a further compound.
input: Look up Urine: NS(=O)(=O)c1cc(C(=O)NN2Cc3ccccc3C2C(=O)O)ccc1Cl (centres undefined)
output: 87.1
